Numbers sourced from the supplement of paper PMC10567573.

B1: C22orf15 (parent)
chain: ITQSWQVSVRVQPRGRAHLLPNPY

# Variants of: B1
# TEST PROTOCOL: protein stability index of a GFP-peptide fusion (GPS, HEK-293T) (PSI 1-6); higher = more stable;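 also: lentivirally expressed fusions sorted by FACS into six bins by GFP to DsRed ratio, PSI derived from sequencing read proportions per bin multiplied by bin number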
# CONDITION SET: c terminus: a fixed tail appended
Assignment: determine reported protein stability index for the given variants.
Keep the answer to the number alone.

*Q* Give reported protein stability index value for `Y24R`
*A* 2.1

*Q* For `P13Y` , write its protein stability index.
*A* 2.01

*Q* Specify measured protein stability index for `S4Q` .
*A* 1.87

*Q* Consider the variant `H18L` . State its measured protein stability index.
*A* 3.13

*Q* Specify protein stability index for `R16P` and stop.
*A* 2.07
